Measured pIC50 of individual entries
target: Recombinant human c-KIT kinase (Homo sapiens); assay: c-KIT Kinase Chemiluminescence Assay (ADP-Glo); settings: recombinant human c-KIT 30-40 nM, ATP 50 μM, polyEY substrate, ADP-Glo luminescence
pIC50: −log10 of the molar value.

Please review the following examples before continuing.
1) Cc1ccc(-c2nc3n(n2)CCN(C(=O)OC(C)(C)C)C3)cc1NC(=O)c1cnc2ccccn12	> 7.00
2) Cc1ccc(-c2nc(C3CC3)nn2C)cc1NC(=O)c1cnc2ccccn12	< 6.00
3) Cc1ccc(-c2nnc3n2CCCC3)cc1NC(=O)c1cnc2ccccn12	< 6.00

# input Look up and report pIC50, with Recombinant human c-KIT kinase (Homo sapiens) as system, for "Cc1ccc(-c2nc3ccc(F)cn3n2)cc1NC(=O)c1cnc2ccccn12"
# output > 7.00

# input Look up and report pIC50, with Recombinant human c-KIT kinase (Homo sapiens) as system, for "Cc1ccc(-c2nc3cc(Cl)ccn3n2)cc1NC(=O)c1cnc2ccccn12"
# output > 7.00

---

molecular target: Recombinant human c-KIT kinase (Homo sapiens, UniProt P10721); test: c-KIT Kinase Chemiluminescence Assay (ADP-Glo); details: recombinant human c-KIT 30-40 nM, ATP 50 μM, polyEY substrate, ADP-Glo luminescence
Sequence (P10721 26-976): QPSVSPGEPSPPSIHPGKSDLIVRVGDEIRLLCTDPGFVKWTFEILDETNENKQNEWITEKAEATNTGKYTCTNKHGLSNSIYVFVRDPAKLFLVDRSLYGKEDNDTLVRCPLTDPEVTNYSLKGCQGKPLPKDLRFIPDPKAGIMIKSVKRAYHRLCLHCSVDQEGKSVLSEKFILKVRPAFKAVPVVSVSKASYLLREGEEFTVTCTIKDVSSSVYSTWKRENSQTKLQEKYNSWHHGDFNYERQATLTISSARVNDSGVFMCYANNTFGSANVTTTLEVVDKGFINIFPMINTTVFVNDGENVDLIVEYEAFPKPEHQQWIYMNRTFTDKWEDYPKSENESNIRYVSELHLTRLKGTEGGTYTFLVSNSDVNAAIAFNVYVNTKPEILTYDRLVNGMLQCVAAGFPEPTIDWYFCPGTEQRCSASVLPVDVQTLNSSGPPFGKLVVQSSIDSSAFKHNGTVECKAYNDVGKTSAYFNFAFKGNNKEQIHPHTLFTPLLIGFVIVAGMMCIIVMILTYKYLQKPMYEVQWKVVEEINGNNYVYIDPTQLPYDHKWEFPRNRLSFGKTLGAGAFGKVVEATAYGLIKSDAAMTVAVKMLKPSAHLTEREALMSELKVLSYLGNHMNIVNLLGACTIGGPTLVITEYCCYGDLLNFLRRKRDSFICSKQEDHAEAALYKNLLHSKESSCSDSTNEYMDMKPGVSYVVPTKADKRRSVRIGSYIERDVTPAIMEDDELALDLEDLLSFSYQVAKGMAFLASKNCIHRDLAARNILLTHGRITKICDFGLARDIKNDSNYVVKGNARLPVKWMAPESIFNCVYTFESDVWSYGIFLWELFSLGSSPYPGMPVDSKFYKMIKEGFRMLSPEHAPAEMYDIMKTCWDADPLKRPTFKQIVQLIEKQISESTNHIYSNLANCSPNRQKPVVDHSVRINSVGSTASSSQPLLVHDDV
Measured IC50 of individual entries

Please review the following examples before continuing.
1) Cc1ccc(-c2nc3ccc(C(F)(F)F)cn3n2)cc1NC(=O)c1cnc2ccccn12	< 100 nM
2) Cc1ccc(-c2nc3n(n2)CCCC3)cc1NC(=O)c1cnc2ccccn12	100 to 1000 nM
3) Cc1ccc(-n2nnc(-c3cccc(F)c3)n2)cc1NC(=O)c1cnc2ccccn12	100 to 1000 nM
4) Cc1ccc(-c2nc3ccc(F)cc3[nH]2)cc1NC(=O)c1cnc2ccccn12	< 100 nM
5) Cc1ccc(-c2nc3ccccc3[nH]2)cc1NC(=O)c1cnc2ccccn12	< 100 nM
6) Cc1ccc(-c2nnn(C3CC(F)(F)C3)n2)cc1NC(=O)c1cnc2ccccn12	< 100 nM
7) Cc1ccc(-c2nnc(C3CC3)n2C2CC2)cc1NC(=O)c1cnc2ccccn12	> 1000 nM

Let us examine a further case.
# input Give the value of IC50 reported for the following: "Cc1ccc(-c2cnn(C3CC(F)(F)C3)n2)cc1NC(=O)c1cnc2ccccn12"
# output < 100 nM

---

molecular target: Recombinant human c-KIT kinase (Homo sapiens); construct: purchased Promega V4498; assay: c-KIT Kinase Chemiluminescence Assay (ADP-Glo); type: biochemical; settings: recombinant human c-KIT 30-40 nM, ATP 50 μM, polyEY substrate, ADP-Glo luminescence
observation_type: IC50

Please review the following examples before continuing.
1. Cc1ccc(-c2nc(C3CC3)n(C)n2)cc1NC(=O)c1cnc2ccccn12 [Example 6]	100 to 1000 nM
2. Cc1ccc(-c2nc3ccccc3n2C)cc1NC(=O)c1cnc2ccccn12 [Example 11-7]	> 1000 nM
3. Cc1ccc(-c2nc3n(n2)[C@@H](c2ccccc2)C[C@H]3F)cc1NC(=O)c1cnc2ccccn12 [Example 6-8]	100 to 1000 nM
4. Cc1ccc(-c2nc3n(n2)CCN(C(=O)C2CC(F)(F)C2)C3)cc1NC(=O)c1cnc2ccccn12 [Example 6-19]	100 to 1000 nM
5. Cc1ccc(-c2nc3n(n2)CCNC3)cc1NC(=O)c1cnc2ccccn12 [Example 6-16]	100 to 1000 nM

# input Give the value of IC50 reported for the following: Cc1ccc(-c2nc3cc(F)ccc3o2)cc1NC(=O)c1cnc2ccccn12 [Example 11-2]
# output < 100 nM

# input Give the value of IC50 reported for the following: Cc1ccc(-c2nc3ccccn3n2)cc1NC(=O)c1cnc2ccccn12 [Example 6-7]
# output > 1000 nM
